- ASSAYED TARGET: S. aureus GyrB ATPase (Staphylococcus aureus, UniProt P0A0K8)
- Sequence (P0AES4 whole entry): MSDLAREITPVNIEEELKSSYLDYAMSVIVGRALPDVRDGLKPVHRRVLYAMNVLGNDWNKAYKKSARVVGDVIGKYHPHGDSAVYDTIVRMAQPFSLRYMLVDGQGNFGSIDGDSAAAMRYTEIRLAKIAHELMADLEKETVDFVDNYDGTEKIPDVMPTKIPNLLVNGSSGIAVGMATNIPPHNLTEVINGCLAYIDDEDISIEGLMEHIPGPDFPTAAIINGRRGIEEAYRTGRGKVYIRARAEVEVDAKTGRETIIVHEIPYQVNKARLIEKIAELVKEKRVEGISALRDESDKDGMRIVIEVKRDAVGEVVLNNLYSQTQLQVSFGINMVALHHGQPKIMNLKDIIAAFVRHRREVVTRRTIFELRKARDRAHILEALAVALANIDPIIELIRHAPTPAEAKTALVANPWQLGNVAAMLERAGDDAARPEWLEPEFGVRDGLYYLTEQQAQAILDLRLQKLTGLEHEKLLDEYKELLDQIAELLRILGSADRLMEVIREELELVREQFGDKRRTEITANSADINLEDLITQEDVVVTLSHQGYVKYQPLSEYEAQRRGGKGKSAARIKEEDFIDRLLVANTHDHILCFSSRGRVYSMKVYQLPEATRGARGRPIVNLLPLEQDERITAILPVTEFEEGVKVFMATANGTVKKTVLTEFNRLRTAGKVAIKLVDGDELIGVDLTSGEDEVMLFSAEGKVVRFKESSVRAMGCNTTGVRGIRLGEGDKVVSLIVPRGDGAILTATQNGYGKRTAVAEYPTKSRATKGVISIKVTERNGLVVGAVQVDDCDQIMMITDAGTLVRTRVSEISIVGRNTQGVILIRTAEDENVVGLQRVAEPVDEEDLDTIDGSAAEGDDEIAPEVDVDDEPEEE
- Sequence (P0A0K8 whole entry): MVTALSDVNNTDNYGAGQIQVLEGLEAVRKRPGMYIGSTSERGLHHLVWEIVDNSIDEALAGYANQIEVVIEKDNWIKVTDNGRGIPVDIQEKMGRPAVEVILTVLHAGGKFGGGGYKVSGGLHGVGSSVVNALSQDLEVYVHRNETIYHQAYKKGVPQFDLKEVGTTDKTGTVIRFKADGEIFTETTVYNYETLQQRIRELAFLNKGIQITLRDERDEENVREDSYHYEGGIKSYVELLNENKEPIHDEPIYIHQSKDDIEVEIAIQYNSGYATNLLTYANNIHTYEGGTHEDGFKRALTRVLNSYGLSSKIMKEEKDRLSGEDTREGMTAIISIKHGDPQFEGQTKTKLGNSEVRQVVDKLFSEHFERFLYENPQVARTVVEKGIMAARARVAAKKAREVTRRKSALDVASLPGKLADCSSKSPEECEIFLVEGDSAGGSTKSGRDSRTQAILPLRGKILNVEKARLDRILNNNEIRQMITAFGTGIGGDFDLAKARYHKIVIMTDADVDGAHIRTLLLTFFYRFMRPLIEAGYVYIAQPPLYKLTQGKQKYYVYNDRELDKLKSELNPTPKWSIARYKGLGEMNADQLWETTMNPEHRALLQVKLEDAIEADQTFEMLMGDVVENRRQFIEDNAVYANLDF
- TEST DETAILS: S. aureus GyrB ATPase inhibition (ammonium molybdate/malachite green phosphate detection)
- Format: biochemical
- TEST CONDITIONS: compound concentration of 1 μM
inhibition at 1 µM values for the molecules below.
Kindly provide the numeric value in % only, without the unit symbol.

The following molecules have reported results that may help.
Cc1[nH]c(C(=O)N[C@@H]2CCN(c3nc(-c4ncccc4F)c(C(=O)O)s3)C[C@@H]2OCc2ccccc2)c(Cl)c1Cl | 114
Cc1[nH]c(C(=O)N[C@@H]2CCN(c3nc(-c4cc(N(C)C)nc(N(C)C)n4)c(C(=O)O)s3)C[C@@H]2F)c(Cl)c1Cl | 101
CO[C@H]1CN(c2nc(-c3nccn3C)c(C(=O)O)s2)CC[C@H]1NC(=O)c1[nH]c(C)c(Cl)c1Cl | 99.1

Problem: Recorded inhibition at 1 µM of COCn1ccnc1-c1nc(N2CC[C@@H](NC(=O)c3[nH]c(C)c(Cl)c3Cl)[C@@H](OC)C2)sc1C(=O)OC , please.
Result: 99.5

Problem: Recorded inhibition at 1 µM of CCOC(=O)c1sc(N2CC[C@@H](NC(=O)c3[nH]c(C)c(Cl)c3Cl)[C@@H](OC)C2)nc1-c1nc(C)no1 , please.
Result: 103

Problem: Recorded inhibition at 1 µM of CCOC(=O)c1sc(N2CC[C@@H](NC(=O)c3[nH]c(C)c(Cl)c3C#N)[C@@H](OC)C2)nc1-c1ncccc1F , please.
Result: 101

Problem: Recorded inhibition at 1 µM of COC(=O)c1sc(N2CC[C@@H](NC(=O)c3cc(C#N)c(C)[nH]3)[C@@H](OC)C2)nc1-c1ncnn1C , please.
Result: 97
